tested on: zfTac3ra; assay: Receptor transactivation assay, CRE-Luc reporter (PKA activation), COS-7 cells expressing zfTac3ra; format: cell-based, zebrafish; details: Table 6 (native peptides and analogues); PKA activation; mean ± SEM; read-out: EC50 using CRE-Luc, zfTac3ra
pEC50: −log10 of the molar value. *1 amine or outer side, *2 acyl side, *3 side chain or, on linkers, in order; H or OH if unused. Where a SMILES comes first, the peptide text is derived from it. [ ]: non-standard residue; d: D form. NMeF = CN[C@@H](Cc1ccccc1)C(=O)O; Suc = O=C(CCC(=O)[*:2])[*:1]
Param threshold (8) applies to pEC50; output y when value >= threshold, n when value < threshold.

>  <compound>
CSCC[C@H](NC(=O)[C@H](CC(C)C)NC(=O)CNC(=O)[C@H](Cc1ccccc1)N(C)C(=O)[C@H](Cc1ccccc1)NC(=O)[C@H](CC(=O)O)NC(=O)CCC(=O)O)C(N)=O [Senktide, Succ-Asp-Phe-N(Me)Phe-Gly-Leu-Met-NH2, reference compound] (Suc-DF[NMeF]GLM-NH2)

>  <target_entity>
zfTac3ra

>  <assigned_class>
n

$$$$
>  <compound>
CC[C@H](C)[C@H](NC(=O)[C@H](CC(=O)O)NC(=O)[C@H](Cc1c[nH]cn1)NC(=O)[C@H](CCSC)NC(=O)[C@@H](N)CCC(=O)O)C(=O)N[C@@H](Cc1ccccc1)C(=O)N[C@H](C(=O)NCC(=O)N[C@@H](CC(C)C)C(=O)N[C@@H](CCSC)C(N)=O)C(C)C [zfNKBa] (H-EMHDIFVGLM-NH2)

>  <target_entity>
zfTac3ra

>  <assigned_class>
y

$$$$
